What pKi was measured for each of the following?
Molecular target: Cannabinoid receptor 2 (Homo sapiens)
Sequence (P34972 whole entry): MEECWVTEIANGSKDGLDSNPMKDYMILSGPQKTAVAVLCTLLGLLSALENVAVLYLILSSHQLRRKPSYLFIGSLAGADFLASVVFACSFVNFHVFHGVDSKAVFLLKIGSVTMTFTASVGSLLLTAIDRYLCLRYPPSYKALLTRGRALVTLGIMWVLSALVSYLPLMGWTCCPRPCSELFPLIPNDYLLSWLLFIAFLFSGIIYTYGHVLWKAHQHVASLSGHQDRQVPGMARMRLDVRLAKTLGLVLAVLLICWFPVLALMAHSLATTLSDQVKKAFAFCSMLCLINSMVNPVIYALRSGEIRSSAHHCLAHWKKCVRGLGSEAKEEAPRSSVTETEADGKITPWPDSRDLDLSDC
Assay: CB1 & 2 Binding Assays
Details: pH 7.4; 30 °C
Please note pKi is a logarithmic value: minus log10 of concentration in mol/L. Answer with that number alone.

Exercise: Read off the recorded pKi for `CCCC(C)(C)c1ccc2c(c1)OC(C)(C)[C@@H]1CC=C(C)C[C@@H]21`
Solution: 7.89

Exercise: Return pKi (reported value) for this molecule: `C=CCNC(=O)/C=C/CCC(=C)[C@@H]1CC(C)(C)[C@@H]1CCC(=C)C`
Solution: 6.17

Exercise: Complete the entry with pKi for `C=C(C)CC[C@@H]1[C@H](C(=C)CC/C=C/C(=O)NCCCl)CC1(C)C`
Solution: 5.84

Exercise: Provide one value: measured pKi of `C=C(C)CC[C@@H]1[C@H](C(=C)CC/C=C/C(=O)NCCc2ccc(O)c(O)c2)CC1(C)C`
Solution: 5.19

Exercise: Identify measured pKi associated with `C=C(C)CC[C@@H]1[C@H](C(=C)CC/C=C/C(=O)NCCC)CC1(C)C`
Solution: 6.00

----------
Target: Fatty-acid amide hydrolase 1 (Homo sapiens)
Sequence (O00519 whole entry): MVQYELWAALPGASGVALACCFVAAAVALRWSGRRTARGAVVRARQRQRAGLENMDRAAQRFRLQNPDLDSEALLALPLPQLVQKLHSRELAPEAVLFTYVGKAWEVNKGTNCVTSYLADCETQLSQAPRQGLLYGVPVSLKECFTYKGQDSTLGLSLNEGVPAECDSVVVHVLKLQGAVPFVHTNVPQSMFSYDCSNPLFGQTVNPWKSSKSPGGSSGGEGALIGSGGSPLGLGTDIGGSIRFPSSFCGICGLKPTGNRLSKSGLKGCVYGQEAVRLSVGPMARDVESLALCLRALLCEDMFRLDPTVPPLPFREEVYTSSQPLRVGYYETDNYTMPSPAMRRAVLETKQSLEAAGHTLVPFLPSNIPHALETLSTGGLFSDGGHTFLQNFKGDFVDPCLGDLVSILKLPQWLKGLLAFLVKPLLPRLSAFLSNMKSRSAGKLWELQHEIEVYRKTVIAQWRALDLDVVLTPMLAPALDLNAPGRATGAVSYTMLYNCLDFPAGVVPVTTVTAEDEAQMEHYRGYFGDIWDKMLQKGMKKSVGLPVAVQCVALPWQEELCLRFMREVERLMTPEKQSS
Readout Type: pIC50
Quick note: pIC50 means taking -log10 of the concentration in moles per liter.

Exercise: State its pIC50 for this compound: `C=CCNC(=O)/C=C/CCC(=C)[C@@H]1CC(C)(C)[C@@H]1CCC(=C)C`
Solution: 5.57

Exercise: Provide one value: measured pIC50 of `C=C(C)CC[C@@H]1[C@H](C(=C)CC/C=C/C(=O)NCCC)CC1(C)C`
Solution: 5.20

Exercise: Please give the documented pIC50 of `C=C(C)CC[C@@H]1[C@H](C(=C)CC/C=C/C(=O)NCc2ccc(O)c(OC)c2)CC1(C)C`
Solution: 5.15

----------
Here we list compounds with their recorded pIC50 when tested on Fatty-acid amide hydrolase 1 (Homo sapiens, UniProt O00519).
pIC50: −log10 of the molar value.

Exercise: Using Fatty-acid amide hydrolase 1 (Homo sapiens, UniProt O00519) as the test system, report measured pIC50 of `C=C(C)CC[C@@H]1[C@H](C(=C)CC/C=C/C(=O)NCCc2ccc(O)c(O)c2)CC1(C)C` .
Solution: < 5.00

Exercise: Lab note: Fatty-acid amide hydrolase 1 (Homo sapiens, UniProt O00519) assay, enter pIC50 for `C=C1CC/C=C(\C)CC[C@@H]2[C@H]1CC2(C)C` here
Solution: < 5.00

Exercise: // output pIC50; input `C=C(C)CC[C@@H]1[C@H](C(=C)CC/C=C/C(=O)NCCCl)CC1(C)C` ; system Fatty-acid amide hydrolase 1 (Homo sapiens, UniProt O00519)
Solution: < 5.00
